target: T1, Taq DNA polymerase (Thermus aquaticus, UniProt P19821 1-832); assay: AMC sensor, antibody immobilised
T1 construct: also called Taq enzyme; Taq DNA enzyme
T1 sequence (P19821 whole entry): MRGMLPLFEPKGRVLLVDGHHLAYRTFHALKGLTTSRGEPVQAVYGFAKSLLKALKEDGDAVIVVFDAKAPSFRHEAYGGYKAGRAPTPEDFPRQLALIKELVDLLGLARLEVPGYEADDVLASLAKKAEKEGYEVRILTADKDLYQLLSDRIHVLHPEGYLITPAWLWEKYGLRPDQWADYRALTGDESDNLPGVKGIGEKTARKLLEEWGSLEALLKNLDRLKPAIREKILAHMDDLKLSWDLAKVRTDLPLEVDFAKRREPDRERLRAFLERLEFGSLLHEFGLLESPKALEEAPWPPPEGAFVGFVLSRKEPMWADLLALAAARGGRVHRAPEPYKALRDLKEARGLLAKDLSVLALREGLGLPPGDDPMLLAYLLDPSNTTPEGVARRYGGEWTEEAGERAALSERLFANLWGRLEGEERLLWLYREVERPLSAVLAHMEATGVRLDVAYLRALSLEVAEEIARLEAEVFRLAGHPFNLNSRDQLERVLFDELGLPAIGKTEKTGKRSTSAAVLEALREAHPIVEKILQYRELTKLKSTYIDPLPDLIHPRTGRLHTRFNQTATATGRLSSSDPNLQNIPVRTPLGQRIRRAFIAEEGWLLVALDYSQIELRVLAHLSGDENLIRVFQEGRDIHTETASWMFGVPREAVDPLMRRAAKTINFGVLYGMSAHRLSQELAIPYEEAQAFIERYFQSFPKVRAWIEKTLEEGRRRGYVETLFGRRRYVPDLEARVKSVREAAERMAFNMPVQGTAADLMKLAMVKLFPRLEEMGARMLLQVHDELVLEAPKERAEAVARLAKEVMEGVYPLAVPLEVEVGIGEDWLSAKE
Entries annotated with measured koff
# output: bare number, implied unit s⁻¹

Binder: Mutation 1-49 (antibody, V domains shown, Mutation 1 background; CDRs built) VH: QVQLQQPGAELVKPGASVRLSCQTSVETFTTYYIYWVKQRPGEGLEWIGGLNPTSNPVFNEKFKSKATLTVDTSSSTAYMQLSSLTSVDSAVYYCTRSVVRRGYYFDYWGQGTALTVSS VL: DIQMTQTTSSLSASLGDRVTISCRASQDINNYVNWYQQKPDGTIKLLIYYTSRLQSGIPSRFSGSGSGTDYSLTIANLEQEDIATYFCQQDDTVPITFGAGTKVELKR
Unit Spec: s⁻¹
Val: 1.71e-05
//
Binder: Mutation 1 (antibody, V domains shown, also called mutation 1 antibody) VH: QVQLQQPGAELVKPGASVRLSCQTSVDTFSTYYIYWVKQRPGEGLEWIGGVNPTSNPVFNEKFKSKATLTVDTSSSTAYMQLSSLTSVDSAVYYCTRSILRRGYYFDYWGQGTALTVSS VL: DIQMTQTTSSLSASLGDRVTISCRASQDIQNYVNWYQQKPDGTIKLLIYYTSRLQSGIPSRFSGSGSGTDYSLTIANLEQEDIATYFCQQDDTIPVTFGAGTKVELKR
Unit Spec: s⁻¹
Val: 3.78e-05

In: For the binder Mutation 1-26 (antibody, V domains shown, Mutation 1 background; CDRs built) VH: QVQLQQPGAELVKPGASVRLSCQTSVNTFSTYYIYWVKQRPGEGLEWIGGLNPTSGGPVFNEKFKSKATLTVDTSSSTAYMQLSSLTSVDSAVYYCTRSLIRRGYYFDYWGQGTALTVSS VL: DIQMTQTTSSLSASLGDRVTISCRASQDIQNYLNWYQQKPDGTIKLLIYYTSRLNSGLPSRFSGSGSGTDYSLTIANLEQEDIATYFCQQDDTLPLTFGAGTKVELKR , give its reported koff.
Out: 2.89e-05

In: Give the measured koff for Mutation 1-11 (antibody, V domains shown, Mutation 1 background; CDRs built) VH: QVQLQQPGAELVKPGASVRLSCQTSVNTFTTYYIYWVKQRPGEGLEWIGGLNPTSGGPVFNEKFKSKATLTVDTSSSTAYMQLSSLTSVDSAVYYCTRSIIRRGYYFDYWGQGTALTVSS VL: DIQMTQTTSSLSASLGDRVTISCRASQDINNYINWYQQKPDGTIKLLIYYTSRLQSGLPSRFSGSGSGTDYSLTIANLEQEDIATYFCQQDDTIPLTFGAGTKVELKR
Out: 3.06e-05

In: Quick one: give measured koff for Mutation 1-27 (antibody, V domains shown, Mutation 1 background; CDRs built) VH: QVQLQQPGAELVKPGASVRLSCQTSVNTFTTYYIYWVKQRPGEGLEWIGGVNPTSNPVFNEKFKSKATLTVDTSSSTAYMQLSSLTSVDSAVYYCTRSILRRGYYFDYWGQGTALTVSS VL: DIQMTQTTSSLSASLGDRVTISCRASQDINNYLNWYQQKPDGTIKLLIYYTSRLQSGIPSRFSGSGSGTDYSLTIANLEQEDIATYFCQQDDTIPVTFGAGTKVELKR
Out: 2.03e-06

In: # return recorded koff for entry Mutation 1-54 (antibody, V domains shown, Mutation 1 background; CDRs built) VH: QVQLQQPGAELVKPGASVRLSCQTSVNTFTTYYIYWVKQRPGEGLEWIGGLNPTSNPVFNEKFKSKATLTVDTSSSTAYMQLSSLTSVDSAVYYCTRSILRRGYYFDYWGQGTALTVSS VL: DIQMTQTTSSLSASLGDRVTISCRASQDIQNYVNWYQQKPDGTIKLLIYYTSRLNSGVPSRFSGSGSGTDYSLTIANLEQEDIATYFCQQDDTIPVTFGAGTKVELKR
Out: 1.01e-05

In: Complete the entry with koff for Mutation 1-23 (antibody, V domains shown, Mutation 1 background; CDRs built) VH: QVQLQQPGAELVKPGASVRLSCQTSVDTFSTYYIYWVKQRPGEGLEWIGGLNPTSGGPVFNEKFKSKATLTVDTSSSTAYMQLSSLTSVDSAVYYCTRSVIRRGYYFDYWGQGTALTVSS VL: DIQMTQTTSSLSASLGDRVTISCRASQDINNYINWYQQKPDGTIKLLIYYTSRLNSGVPSRFSGSGSGTDYSLTIANLEQEDIATYFCQQDDTVPLTFGAGTKVELKR
Out: 6.41e-05

In: Write down koff measured for item Mutation 1-15 (antibody, V domains shown, Mutation 1 background; CDRs built) VH: QVQLQQPGAELVKPGASVRLSCQTSVETFTTYYIYWVKQRPGEGLEWIGGVNPTSGGPVFNEKFKSKATLTVDTSSSTAYMQLSSLTSVDSAVYYCTRSLLRRGYYFDYWGQGTALTVSS VL: DIQMTQTTSSLSASLGDRVTISCRASQDINNYLNWYQQKPDGTIKLLIYYTSRLNSGIPSRFSGSGSGTDYSLTIANLEQEDIATYFCQQDDTLPVTFGAGTKVELKR
Out: 5.72e-06

In: Let me know recorded koff for Mutation 1-13 (antibody, V domains shown, Mutation 1 background; CDRs built) VH: QVQLQQPGAELVKPGASVRLSCQTSVDTFTTYYIYWVKQRPGEGLEWIGGINPTSNPVFNEKFKSKATLTVDTSSSTAYMQLSSLTSVDSAVYYCTRSVVRRGYYFDYWGQGTALTVSS VL: DIQMTQTTSSLSASLGDRVTISCRASQDINNYVNWYQQKPDGTIKLLIYYTSRLHSGVPSRFSGSGSGTDYSLTIANLEQEDIATYFCQQDDTVPITFGAGTKVELKR , thanks.
Out: 2.52e-05

In: Respond only with koff recorded for Mutation 1-58 (antibody, V domains shown, Mutation 1 background; CDRs built) VH: QVQLQQPGAELVKPGASVRLSCQTSVETFTTYYIYWVKQRPGEGLEWIGGINPTSNPVFNEKFKSKATLTVDTSSSTAYMQLSSLTSVDSAVYYCTRSVVRRGYYFDYWGQGTALTVSS VL: DIQMTQTTSSLSASLGDRVTISCRASQDIQNYINWYQQKPDGTIKLLIYYTSRLQSGIPSRFSGSGSGTDYSLTIANLEQEDIATYFCQQDDTVPITFGAGTKVELKR
Out: 1.34e-05
